TESTED ON: T1, CEACAM1 (Sino Biological) (human, UniProt P13688 35-428, limits assumed)
T1 construct: may be the same as CEACAM1-HIS; also called hCEACAM1; biotinylated soluble CEACAM1
T1 sequence: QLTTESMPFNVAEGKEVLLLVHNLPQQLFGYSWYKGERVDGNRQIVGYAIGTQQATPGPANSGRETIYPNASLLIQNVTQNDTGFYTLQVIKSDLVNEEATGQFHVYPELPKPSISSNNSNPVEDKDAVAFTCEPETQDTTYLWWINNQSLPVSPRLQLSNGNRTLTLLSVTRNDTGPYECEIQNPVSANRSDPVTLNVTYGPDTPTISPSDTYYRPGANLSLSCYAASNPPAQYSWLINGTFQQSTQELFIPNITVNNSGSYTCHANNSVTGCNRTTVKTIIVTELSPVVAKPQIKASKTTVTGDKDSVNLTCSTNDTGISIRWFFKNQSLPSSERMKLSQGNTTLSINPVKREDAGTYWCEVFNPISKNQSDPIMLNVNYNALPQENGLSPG
ASSAY INFO: SPR single-cycle
MEASURED METRIC: pKd
One number for each entry, as −log10 of the molar value.

BINDER	pKd
He1/L4#2 (antibody, IgG4, V domains shown, IgG4 S241P, kappa) VH: EVQLLESGGGLVQPGGSLRLSCAASGFSFSDYYLYWVRQAPGKGLEWVATISVGGGQTSYADSVKGRFTISRDNSKNTLYLQMNSLRAEDTAMYYCTRGLYYGPSWFAYWGQGTLVTVSS VL: DIVMTQSPDSLAVSLGERATINCKSSQSLLNSANQKNYLAWYQQKPGQPPKLLIYFASTRESGVPDRFSGSGSGTDFTLTISSLQAEDVAVYYCQSHYPYPYTFGGGTKVEIK	6.52

Let us examine a further case.
**Query** Please report the recorded pKd for He17/L17 (antibody, IgG4, V domains shown, IgG4 S241P, kappa) VH: EVQLLESGGGLVQPGGSLRLSCAASGFSFSDYYLYWVRQAPGKGLEWVATISVGGGQTSYADSVKGRFTISRDNSKNTLYLQMNSLRAEDTAMYYCTRARTYGPAWFAYWGQGTLVTVSS VL: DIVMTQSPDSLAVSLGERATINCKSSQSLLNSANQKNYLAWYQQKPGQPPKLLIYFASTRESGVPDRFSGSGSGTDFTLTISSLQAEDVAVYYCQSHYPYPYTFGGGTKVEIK .
**Result** 6.98
